Please respond with reported pIC50 for every item in the list.
# test.target: LAR (Homo sapiens, UniProt P10586)
# Sequence (P10586 1352-1607 limits assumed): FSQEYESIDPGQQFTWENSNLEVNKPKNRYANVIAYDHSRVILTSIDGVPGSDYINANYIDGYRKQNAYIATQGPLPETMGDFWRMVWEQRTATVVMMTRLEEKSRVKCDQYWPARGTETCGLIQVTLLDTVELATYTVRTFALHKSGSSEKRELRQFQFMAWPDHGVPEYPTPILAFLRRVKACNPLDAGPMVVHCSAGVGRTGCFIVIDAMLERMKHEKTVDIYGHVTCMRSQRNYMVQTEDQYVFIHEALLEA
# assay.info: Inhibition of human recombinant tyrosine phosphatase LAR (DiFMUP fluorescence)
Answers are plain numbers, as −log10 of the molar value.

A selection of reference data follows.
molecule	pIC50
[O]=[V]1[O]C(c2ccc(Cl)cc2)=NN=Cc2cc(Br)ccc2[O]1.c1cnc2c(c1)ccc1cccnc12 [VC050, [VO(L11)(phen)]]	5.77
O=S(=O)([O-])[O-].[O]=[V+2] [VOSO4, reference compound]	7.02

Consider now this further molecule.
Hello, I am looking for reported pIC50 with LAR (Homo sapiens, UniProt P10586) for O=C(NN=Cc1cc(Br)ccc1[O-])c1ccc([N+](=O)[O-])cc1.O=[N+]([O-])c1ccc(C([O-])=NN=Cc2cc(Br)ccc2[O-])cc1.[V+3] [VC068, [V(L13)(HL13)]] . Could you help?
6.21
